Task for the reader: assign each of the following compounds its reported growth.
# Tested on: T-47D breast
# ASSAY_METHOD_TEXT: NCI-60 one-dose screen, 48 h (100 = growth as untreated, 0 = no growth, -100 = all killed)
# SETTINGS: 10 µM unless noted
About 83,000 compounds went through this panel and 20% of them were active in at least one assay; those are over-represented in the sample as a whole.
The response must be a number in % with no trailing unit.

Record CCCCCN1C=C/C(=C\C(=O)N(C)c2cccc3ccccc23)c2ccccc21 . Reported growth: 87.9

Record Nc1c(C(=O)Nc2cccc3ccncc23)sc2nc3c(cc12)C(=O)CCC3 . Reported growth: 48.5

Record CCCCCCC/C=C/[C@H]1O[C@]2(O)C(=O)C=C3C[C@@H](O[C@@H]4O[C@H](CO)[C@@H](O)C(O)[C@@H]4O)C[C@@H]3[C@H]2C=C1C (some centres undefined) . Reported growth: -9.2

Record Cn1/c(=N/NC(N)=S)ccc2ccccc21 . Reported growth: 52.9

Record Clc1ccc(C2CC(c3cccc(Nc4ccncc4)c3)=NN2c2cc(Cl)cc(Cl)c2)cc1 (centres undefined) . Reported growth: 86.4

Record C[C@H]1[C@H](C)CC[C@]2(CO)CC[C@]3(C)C(=CC[C@@H]4[C@@]5(C)CCCNC(C)(C)[C@@H]5CC[C@]43C)[C@H]12 . Reported growth: 1.1

Record Cc1[nH]n(-c2cccc(Cl)c2)c(=O)c1/C=C1\C=Nc2ccc(Br)cc21 . Reported growth: -47.4

Record COc1ccc(/C=C(/c2ccccc2)[N+](=O)[O-])cc1 . Reported growth: -64.5

Record CC(=O)O[C@]1(C(C)=O)CC[C@H]2[C@@H]3C=C(Cl)C4=CC(=O)CC[C@]4(C)[C@H]3CC[C@@]21C . Reported growth: 97.1
